Target: BRAF G466V (Homo sapiens, UniProt P15056, G466V)
Construct: Horizon Discovery (HCT-116 BRAF−/− cells); host or cells: HCT-116 BRAF−/− cells, clone 8, lentiviral transduction
Sequence (P15056 whole entry G466V): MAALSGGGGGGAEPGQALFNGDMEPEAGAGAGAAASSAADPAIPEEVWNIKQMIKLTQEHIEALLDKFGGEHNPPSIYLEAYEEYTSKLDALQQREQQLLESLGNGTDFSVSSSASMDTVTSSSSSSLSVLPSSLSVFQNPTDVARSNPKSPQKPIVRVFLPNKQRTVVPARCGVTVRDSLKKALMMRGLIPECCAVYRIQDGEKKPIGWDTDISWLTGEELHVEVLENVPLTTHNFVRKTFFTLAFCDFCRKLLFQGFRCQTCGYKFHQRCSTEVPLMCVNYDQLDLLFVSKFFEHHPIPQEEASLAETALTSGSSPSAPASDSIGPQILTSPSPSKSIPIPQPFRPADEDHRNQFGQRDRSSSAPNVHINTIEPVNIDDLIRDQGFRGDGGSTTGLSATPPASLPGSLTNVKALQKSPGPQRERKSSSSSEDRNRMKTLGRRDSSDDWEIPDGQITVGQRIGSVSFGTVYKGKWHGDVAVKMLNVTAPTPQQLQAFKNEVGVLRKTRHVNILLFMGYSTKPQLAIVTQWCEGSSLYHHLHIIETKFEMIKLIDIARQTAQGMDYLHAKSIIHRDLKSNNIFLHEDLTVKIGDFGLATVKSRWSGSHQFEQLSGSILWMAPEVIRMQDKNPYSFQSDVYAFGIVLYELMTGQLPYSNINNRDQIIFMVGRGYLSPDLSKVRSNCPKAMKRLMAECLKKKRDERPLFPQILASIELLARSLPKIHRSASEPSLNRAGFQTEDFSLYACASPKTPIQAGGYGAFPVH
Assay: BRAF HiBiT degradation assay, C-terminal HiBiT-tagged BRAF G466V overexpressed in HCT-116 BRAF−/− cells (clone 8), Nano-Glo HiBiT Lytic assay
Type: cell-based
Details: BRAF G466V (Class 3), HCT-116 BRAF−/− cells; observed Dmax relative to DMSO control
# Dmax values compiled below
Reported Property: Dmax

| Compound | Reported Property | Result |
| --- | --- | --- |
| O=C1CC[C@H](c2ccc(N3CCC(CN4CCCN(c5ccc(-n6cc(-c7cc(Cl)cc(NS(=O)(=O)N8CCCC8)c7F)c(-c7ccncc7)n6)c(F)c5)CC4)CC3)cc2)C(=O)N1 | Dmax | 30 to 70% |
| O=C1CCN(c2ccc(N3CCC(CN4CCN(c5ccc(-n6cc(-c7cc(Cl)cc(NS(=O)(=O)N8CCCC8)c7F)c(-c7ccncc7)n6)cc5)CC4)CC3)cc2)C(=O)N1 | Dmax | > 70% |
| O=C1CCN(c2ccc(N3CCC(CN4CCN(c5ccc(-n6cc(-c7cc(Cl)cc(NS(=O)(=O)N8CCCC8)c7F)c(-c7ccncc7)n6)c(F)c5)CC4)CC3)nc2)C(=O)N1 | Dmax | 30 to 70% |
| CCN(C)S(=O)(=O)Nc1cccc(-c2cn(-c3ccc(N4CCN(CC5CCN(c6ccc([C@H]7CCC(=O)NC7=O)cn6)CC5)CC4)cc3F)nc2-c2ccncc2)c1F | Dmax | 30 to 70% |
| C[C@@H]1CN(c2ccc(-n3cc(-c4cc(Cl)cc(NS(=O)(=O)N5CCCC5)c4F)c(-c4ccncc4)n3)nc2)CCN1CC1CCN(c2ccc([C@H]3CCC(=O)NC3=O)cn2)CC1 | Dmax | > 70% |
| O=C1CCC(c2ccc(N3CCC(CN4CCN(c5ccc(-n6cc(-c7cc(Cl)cc(NS(=O)(=O)N8CCCC8)c7F)c(-c7ccncc7)n6)cn5)CC4)CC3)nc2)C(=O)N1 (racemic) | Dmax | > 70% |
| O=C1CC[C@H](c2ccc(N3CCC(CN4CCN(c5ccc(-n6cc(-c7cc(Cl)cc(NS(=O)(=O)N8CCCC8)c7F)c(-c7ccncc7)n6)nc5)CC4)CC3)nc2)C(=O)N1 | Dmax | > 70% |
| CCN(C)S(=O)(=O)Nc1cc(Cl)cc(-c2cn(-c3ccc(N4CCN(CC5CCN(c6ccc(C7CCC(=O)NC7=O)cn6)CC5)CC4)cc3)nc2-c2ccncc2)c1F (racemic) | Dmax | > 70% |
| O=C1CCC(N2C(=O)c3ccc(N4CC(CN5CC(c6ccc(-n7cc(-c8ccc9c(c8)CC/C9=N/O)c(-c8ccncc8)n7)cc6)C5)C4)cc3C2=O)C(=O)N1 (racemic) | Dmax | < 30% |
| O=C1CC[C@H](c2ccc(N3CCC(CN4CCN(c5ccc(-n6cc(-c7cc(Cl)cc(NS(=O)(=O)N8CC[C@@H](F)C8)c7F)c(-c7ccncc7)n6)c(F)c5)CC4)CC3)cc2)C(=O)N1 | Dmax | > 70% |
